The reported measurements were obtained from patent US9243020B2.

experiment: Assay for determination of apparent permeability (Papp), bi-directional transport; format: in vitro ADME; settings: pig, LLC-PK1; 1 μM test compound, t=3 h, average of A to B and B to A; read-out: Papp LLC-PK-1 cells
Below, each of the compounds is paired with its reported Papp at 3 h, 1 μM value.
Give your result in ×10⁻⁶ cm/s as a bare value.

Below, 5 compounds whose answers are already recorded.
CCNC1=N[C@@H]2C[C@H](O)[C@@H](CO)O[C@@H]2S1 | 3.8
CNC1=N[C@@H]2[C@H](F)[C@H](O)[C@@H](C(F)F)O[C@@H]2S1 | 20.1
CNC1=N[C@@H]2C[C@H](O)[C@@H](C(F)F)O[C@@H]2S1 | 24
CCNC1=N[C@@H]2[C@@H](O)[C@H](O)[C@@H](C(F)F)O[C@@H]2S1 | 6
CN(C)C1=N[C@@H]2[C@@H](O)[C@H](O)[C@@H](C(F)F)O[C@@H]2S1 | 13.7

Incoming: I am curious: what Papp at 3 h, 1 μM value has been reported for "CNC1=N[C@@H]2[C@@H](O)[C@H](O)[C@@H](CF)O[C@@H]2S1" ?
Outgoing: 7.1
